B1: Chromodomain-helicase-DNA-binding protein 4, residues 444 to 496; numbered along this chain, Q14839 (parent)
chain: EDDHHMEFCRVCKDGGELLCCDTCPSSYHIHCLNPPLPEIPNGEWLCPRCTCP

Variants of: B1
Test: abundance fitness (aPCA) (normalised: wild type 0, dead -1); higher = more abundant; growth selection in yeast, the domain comes from the species named
Details: Homo sapiens
Measured Metric: abundance fitness
Returns: the value as a bare number; no unit string appended.

Sample records with abundance fitness:
S27F : -0.177
N42M : -0.127
C9K : -0.54

// Input: `D14R` . Output its abundance fitness only.
-0.057

// Input: `C47W` . Output its abundance fitness only.
-0.766
